Origin of values: patent US20260258115A1

Examples of binders with documented pKd follow.
- measured_on: RSV prefusion F (preF), subtype B (respiratory syncytial virus, subtype B)
- measurement_protocol: BLI, IgG
// field semantics: pKd = negative decimal log of concentration (mol/L)

[
  {
    "binder": "ADI-14582 (antibody, V domains shown) VH: QVQLVQSGAEVKKPGESLKISCKGPDSSFSVYWIAWVRQMPGKGLEWMGVIYVGDSDTRYSPSFRGQVTISADKSINTAYLQWSSLKASDTAMYFCARHIPPGPFDLWGQGTTVTVSS VL: NFMLTQPHSVSASPGKTITISCTRSSGSIASNSVQWYQQRPGSAPTNVIYEDNQRPLGVPNRFSGSIDSSSNSASLTISGLKTEDEADYYCQSYHSSDQVFGGGTKVTVL",
    "quantity": "pKd",
    "observed_result": 8.74
  }
]

Prompt: Fill blank: measured pKd of the binder ADI-14577 (antibody, V domains shown) VH: QVQLVQSGAEVKKPGASVKVSCKASGYTFTNYGITWVRQAPGQGLEWMGWISAYNGVRNYAQKLQGRVTMTIDTSRTTAYMELKNLRSDDTAMYYCARGPPVIAADDFQHWGQGTMVTVSS VL: DIQMTQSPLSLPVTLGQPASISCRSSQSLVHSNGDTYLNWFQQRPGRSPRRLIYKVSNRDSGVPDRFSGSGSGTDFTLKISRVEAEDVGVYYCMQGTHWPPDFGQGTRLEIK is ____.
Response: 8.66

Prompt: Fill blank: measured pKd of the binder ADI-14576 (antibody, V domains shown) VH: QVQLVQSGAEVKKPGASVKVSCKASGYTFTSYGISWVRQAPGQGLEWMGWISAYNGNTNYAQKLQGRVTMTTDTSTSTAYMELRSLRSDDTAVYYCARDPPVIAAGDFQHWGQGTLVTVSS VL: DIVLTQSPLSLPVTLGQPASISCRSSQSLVHSDGNTYLNWFQQRPGQSPRRLIYKVSNRDSGVPDRFSGSGSGTDFTLKISRVEAEDVGVYYCMQGTHWPPDFGQGTRLEIK is ____.
Response: 7.71
